System: HCV nonstructural protein NS5A or NS3 in 9–13 replicon cells
PROTOCOL: Quantitative Western blot assay
Format: cell-based, Hepatitis C virus
EXPERIMENTAL_PARAMETERS: Hepatitis C virus, read-out: Western IC50
pIC50: −log10 of the molar value.
MEASURE_NAME: pIC50

Q. Given the entry O=C(Nc1cccc(-c2cc(-c3c(Cl)cccc3Cl)no2)c1)C(Cl)Cl , report its measured pIC50.
A. > 5.00

---

PROTOCOL: Cytotoxicity assay (Cell Titer Glo)
Format: cell-based
EXPERIMENTAL_PARAMETERS: human; 48 hr with compound, ATP-dependent Cell Titer Glo assay; read-out: IC50 in cytotoxicity assay (number of viable cells)
Can you tell me IC50 at 48 h for the items I'm about to list?

O=C(Nc1cccc(-c2cc(-c3c(Cl)ccc(Cl)c3Cl)no2)c1)C(Cl)Cl; > 10 µM

Provide each entry's IC50 at 48 h from the list below.
1. Cc1cccc(C)c1-c1cc(-c2cccc(NC(=O)C(Cl)Cl)c2)on1
2. O=C(Nc1cccc(-c2cc(-c3c(Cl)cccc3C3CCCC3)no2)c1)C(Cl)Cl

A.
["> 5 µM", "> 10 µM"]

Hello, I would appreciate it if you could give IC50 at 48 h for each entry below.
1. O=C(Nc1cccc(-c2cc(-c3c(F)cccc3Cl)no2)c1)C(Cl)Cl
2. O=C(Nc1cccc(-c2cc(-c3c(Cl)cccc3Cl)on2)c1)C(Cl)Cl
3. Cc1cc(C)c(-c2cc(-c3cccc(NC(=O)C(Cl)Cl)c3)on2)c(C)c1
4. O=C(Nc1cccc(-c2cc(-c3c(C4CC4)cccc3C(F)(F)F)no2)c1)C(Cl)Cl

A.
> 5 µM
> 10 µM
3 µM
> 10 µM

Q. // query IC50 at 48 h value for entry O=C(Nc1cccc(-c2cc(-c3ccccc3C3CCCC3)no2)c1)C(Cl)Cl
A. > 10 µM
